FYI, the data here is from a collection of fitness landscapes (doi:10.1016/j.celrep.2020.107928).

one-hybrid fitness for binding parS DNA listing for selected variants.
B1: Caulobacter ParB omega fusion; a variant is named by its letters at X, in order, B8GW30 (parent)
chain: MESVVVGEPGMSEGRRGLGRGLSALLGEVDAAPAQAPGEQLGGSREAPIEILQRNPDQPRRTFREEDLEDLSNSIREKGVLQPILVRPSPDTAGEYQIVAGERAWRAAQRAGLKTVPIMVRELDDLAVLEIGIIENVQRADLNVLEEALSYKVLMEKFERTQENIAQTIGKSXSHVANXMRLLXLPDEVQSYLVSGELTAXHARAIAAAADPVALAKQIIEGGLSVRETEALARKAPNLSAGKSKGGRPPRVKDTDTQALESDLSSVLGLDVSIDHRGSTGTLTITYATLEQLDDLCNRLTRGI

- Variants of: B1
- test_summary: one-hybrid fitness for binding parS DNA (scaled: cognate 1, non-cognate 0); higher = stronger binding
- study_conditions: with parS DNA site
Whole data set: some 81,000 sequences, median “one-hybrid fitness for binding parS DNA” near -0.17, cut for the highest 2% near 0.51. Shown is part of a subset that was picked to be rich in the highest values.

>>> print(df.to_string())
   mutation_label  reported
0            RCAG      1.02
1            RFFF     ≤ 0.2

Quote one-hybrid fitness for binding parS DNA reported for `RSAG` please.
0.992

Quote one-hybrid fitness for binding parS DNA reported for `RQIR` please.
≤ 0.2

Quote one-hybrid fitness for binding parS DNA reported for `RQPC` please.
0.426

Quote one-hybrid fitness for binding parS DNA reported for `RNDP` please.
≤ 0.2

Quote one-hybrid fitness for binding parS DNA reported for `RQIP` please.
≤ 0.2

Quote one-hybrid fitness for binding parS DNA reported for `RPAG` please.
≤ 0.2

Quote one-hybrid fitness for binding parS DNA reported for `RQIT` please.
0.647

Quote one-hybrid fitness for binding parS DNA reported for `QSVI` please.
≤ 0.2

Quote one-hybrid fitness for binding parS DNA reported for `DWQR` please.
≤ 0.2

Quote one-hybrid fitness for binding parS DNA reported for `RQPN` please.
≤ 0.2
